FYI, the data here is from the Immune Epitope Database (IEDB).

target: HLA-B*51:01; assay: IEDB peptide-MHC binding, purified MHC/direct/fluorescence; filed as Kd, often an IC50 or EC50 that approximates it; bounds were set here for any values at or beyond the usual limits of such assays; details: source organism: Camelpox virus CMS
value kind: Kd

Per the record, VIARTHTAL has Kd of ≥ 20 µM

###

target: HLA-A*11:01; experiment: IEDB peptide-MHC binding, purified MHC/competitive/radioactivity; filed as Kd, often an IC50 or EC50 that approximates it; bounds were set here for any values at or beyond the usual limits of such assays; settings: source organism: Mammarenavirus juninense
value kind: Kd (µM)
One number for each entry, in µM.

Record VFFTASLFLH . Reported Kd: 10.1
